Quick reference for inhibition at 0.2 µM among some compounds
Target: Cannabinoid CB1 Receptor (Homo sapiens, UniProt P21554)
Construct: expressed in transfected cells; semi-purified membrane pellet
Sequence (P21554 whole entry): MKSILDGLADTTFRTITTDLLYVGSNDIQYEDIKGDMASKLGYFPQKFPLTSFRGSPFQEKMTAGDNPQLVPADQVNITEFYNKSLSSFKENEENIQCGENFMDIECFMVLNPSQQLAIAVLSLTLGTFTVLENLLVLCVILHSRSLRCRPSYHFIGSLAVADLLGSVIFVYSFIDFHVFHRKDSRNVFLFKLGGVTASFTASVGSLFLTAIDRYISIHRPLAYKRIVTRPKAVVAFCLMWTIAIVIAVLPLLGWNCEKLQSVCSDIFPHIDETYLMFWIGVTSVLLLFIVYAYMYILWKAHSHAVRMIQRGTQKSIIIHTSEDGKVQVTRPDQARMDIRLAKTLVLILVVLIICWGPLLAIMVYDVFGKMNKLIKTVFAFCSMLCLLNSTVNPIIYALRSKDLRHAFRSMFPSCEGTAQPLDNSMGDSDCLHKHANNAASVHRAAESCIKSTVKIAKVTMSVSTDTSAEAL
Experiment: Binding assay, cannabinoid CB1 receptor ([3H]-CP-55,940 displacement, SK-N-MC cell membranes)
Conditions: test concentration of 0.2 μM; human CB1 in SK-N-MC membranes; read-out: Cannabinoid CB1 Receptor Binding, percent inhibition
MEASUREMENT LABEL: inhibition at 0.2 µM (%)

COMPOUND: O=C(NN1CCCCC1)c1nn(-c2ccc(Cl)cc2Cl)c2c1COC/C2=C\c1ccsc1 [Cpd 43]
VALUE MEASURED: 83
--
COMPOUND: O=C(c1nn(-c2ccc(Cl)cc2Cl)c2c1COC/C2=C\c1ccc(F)cc1)N1CCCC1 [Cpd 10]
VALUE MEASURED: 33
--
COMPOUND: O=C(NN1CCCCC1)c1nn(-c2ccc(Cl)cc2Cl)c2c1COC/C2=C\c1cccs1 [Cpd 35]
VALUE MEASURED: 68
--
COMPOUND: O=C(NN1CC2CCCC2C1)c1nn(-c2ccc(Cl)cc2Cl)c2c1COC/C2=C\c1ccc(Cl)o1 (stereo not shown) [Cpd 71]
VALUE MEASURED: 71

---

Quick reference for inhibition at 0.2 µM among some compounds
Target: Cannabinoid CB1 Receptor (Homo sapiens, UniProt P21554)
Construct: expressed in transfected cells; semi-purified membrane pellet
Experiment: Binding assay, cannabinoid CB1 receptor ([3H]-CP-55,940 displacement, SK-N-MC cell membranes)
Details: test concentration of 0.2 μM; human CB1 in SK-N-MC membranes; read-out: Cannabinoid CB1 Receptor Binding, percent inhibition

COMPOUND: CN1CCN(NC(=O)c2nn(-c3ccc(Cl)cc3Cl)c3c2COCC3Cc2ccc(F)cc2)CC1 (centres unmarked) [Cpd 26]
ASSAYED SYSTEM: Cannabinoid CB1 Receptor (Homo sapiens, UniProt P21554)
inhibition at 0.2 µM [%]: 8
//
COMPOUND: O=C(NN1CCCCC1)c1nn(-c2ccc(Cl)cc2Cl)c2c1COC/C2=C\c1ccc(Cl)s1 [Cpd 54]
ASSAYED SYSTEM: Cannabinoid CB1 Receptor (Homo sapiens, UniProt P21554)
inhibition at 0.2 µM [%]: 78
//
COMPOUND: O=C(N[C@H](CO)c1ccccc1)c1nn(-c2ccc(Cl)cc2Cl)c2c1COC/C2=C\c1ccsc1 [Cpd 48]
ASSAYED SYSTEM: Cannabinoid CB1 Receptor (Homo sapiens, UniProt P21554)
inhibition at 0.2 µM [%]: 36
//
COMPOUND: O=C(NN1CCCCC1)c1nn(-c2ccc(Cl)cc2)c2c1COC/C2=C\c1ccc(F)cc1 [Cpd 11]
ASSAYED SYSTEM: Cannabinoid CB1 Receptor (Homo sapiens, UniProt P21554)
inhibition at 0.2 µM [%]: 55
//
COMPOUND: O=C(c1nn(-c2ccc(Cl)cc2Cl)c2c1COC/C2=C\c1ccc(F)cc1)N1CCC[C@@H]1CO [Cpd 20]
ASSAYED SYSTEM: Cannabinoid CB1 Receptor (Homo sapiens, UniProt P21554)
inhibition at 0.2 µM [%]: 27
//
COMPOUND: C[C@@H](NC(=O)c1nn(-c2ccc(Cl)cc2Cl)c2c1COC/C2=C\c1cccs1)c1ccccc1 [Cpd 32]
ASSAYED SYSTEM: Cannabinoid CB1 Receptor (Homo sapiens, UniProt P21554)
inhibition at 0.2 µM [%]: 76
//
COMPOUND: O=C(NN1CCN(CCO)CC1)c1nn(-c2ccc(Cl)cc2Cl)c2c1COC/C2=C\c1ccc(F)cc1 [Cpd 31]
ASSAYED SYSTEM: Cannabinoid CB1 Receptor (Homo sapiens, UniProt P21554)
inhibition at 0.2 µM [%]: 10
//
COMPOUND: C[C@H](NC(=O)c1nn(-c2ccc(Cl)cc2Cl)c2c1COC/C2=C\c1ccc(Cl)s1)C1CCCCC1 [Cpd 50]
ASSAYED SYSTEM: Cannabinoid CB1 Receptor (Homo sapiens, UniProt P21554)
inhibition at 0.2 µM [%]: 34
